- Tested on: Human Oral Mucosa Explant Tissues
- ASSAY_PROTOCOL: Effect of final gel pH on anthocyanin uptake into human oral mucosa explant tissues
- Format: in vitro ADME
- SETUP_CONDITIONS: explant sample 006; 10% w/w FBR gel
- Description: Anthocyanin content in sera, saliva, and tissue explants was evaluated by an HPLC-MS assay. The respective samples (sera, saliva or tissue homogenates) were dissolved in 90% solvent A (water plus 1% formic acid) and 10% solvent B (acetonitrile plus 1% formic acid) and then separated on a Symmetry C18 reversed-phase column and analyzed using a Waters 2695 gradient HPLC separation module equipped with a 996 photodiode-array (PDA) UV/visible absorbance detector (Milford, Mass.). […]
For each of the compounds below, state its % change 3.5 to 6.5.
One number for each entry, in %.

COMPOUND	TESTED_SYSTEM	UNIT	% change 3.5 to 6.5
CC1OC(OCC2OC(Oc3cc4c(O)cc(O)cc4[o+]c3-c3ccc(O)c(O)c3)C(OC3OCC(O)C(O)C3O)C(O)C2O)C(O)C(O)C1O (stereo not shown) [cyanidin 3-xylosylrutinoside]	Human Oral Mucosa Explant Tissues	%	258.5
OC[C@H]1O[C@@H](Oc2cc3c(O)cc(O)cc3[o+]c2-c2ccc(O)c(O)c2)[C@H](O)[C@@H](O)[C@@H]1O [cyanidin 3-glucoside]	Human Oral Mucosa Explant Tissues	%	91.3

Provide % change 3.5 to 6.5 for all items below, preserving their order.
1. C[C@@H]1O[C@@H](OC[C@H]2O[C@@H](Oc3cc4c(O)cc(O)cc4[o+]c3-c3ccc(O)c(O)c3)[C@H](O)[C@@H](O)[C@@H]2O)[C@H](O)[C@H](O)[C@H]1O [cyanidin 3-rutinoside]
2. OC[C@H]1O[C@@H](Oc2cc3c(O)cc(O)cc3[o+]c2-c2ccc(O)c(O)c2)[C@H](O[C@@H]2OC[C@@H](O)[C@H](O)[C@H]2O)[C@@H](O)[C@@H]1O.[Cl-] [Cyanidin 3-sambubioside, cyanidin 3-sambubioside]

Response:
362.1
330.8
